- Tested on: C3H/He mice, Gardner lymphosarcoma 6C3HED ip, survival T/C
- experimental-protocol: NCI In Vivo Anticancer Drug Screen. Data for tumor model Lymphosarcoma Gardner 6C3HED (intraperitoneal) in C3H/He mice
- experimental-setup: endpoint: survival time, mean or median; dose: 125.0 mg/kg/injection; schedule: Q01DX010 (ip); vehicle: saline; higher = longer survival
Toxic doses and inconclusive results are not listed.
attribute-measured: T/C

CCCSc1ncnc2nc[nH]c12 = 95 % of control

With those in mind, consider the next compound.
stdin: Any idea what T/C was measured for `O=CN(O)CC(=O)O` ?
stdout: 89 % of control

* * *

- Tested on: C3H/He mice, Gardner lymphosarcoma 6C3HED ip, survival T/C
- experimental-protocol: NCI In Vivo Anticancer Drug Screen. Data for tumor model Lymphosarcoma Gardner 6C3HED (intraperitoneal) in C3H/He mice
- experimental-setup: endpoint: survival time, mean or median; dose: 25.0 mg/kg/injection; schedule: Q01DX010 (ip); vehicle: saline
Inconclusive results and toxic doses are left out. Rule for the calls: active = survival T/C of 150% or more; inactive = T/C below 125% in these data.
Classes to choose from: active, inactive

C[C@H]1C(=O)O[C@@H]2CCN3CC=C(COC(=O)[C@](C)(O)[C@@]1(C)O)[C@H]23 = inactive
NC(=O)n1cccn1 = inactive
COS(C)(=O)=O = active
CS(=O)(=O)OCC(O)C(O)C(O)C(O)COS(C)(=O)=O (stereo not given) = inactive

Moving on to the next molecule.
stdin: What is the recorded call for this molecule in the test? `C[C@@H]1C[C@H]2CC[C@H](O2)[C@H](C)C(=O)O[C@@H](C)C[C@@H]2CC[C@@H](O2)[C@@H](C)C(=O)O[C@H](C)C[C@H]2CC[C@H](O2)[C@H](C)C(=O)O[C@@H](C)C[C@@H]2CC[C@@H](O2)[C@@H](C)C(=O)O1`
stdout: inactive

* * *

Below, each entry is listed with its recorded T/C.
- Tested on: C3H/He mice, Gardner lymphosarcoma 6C3HED ip, survival T/C
- experimental-protocol: NCI In Vivo Anticancer Drug Screen. Data for tumor model Lymphosarcoma Gardner 6C3HED (intraperitoneal) in C3H/He mice
- experimental-setup: endpoint: survival time, mean or median; dose: 125.0 mg/kg/injection; schedule: Q01DX010 (ip); vehicle: saline; higher = longer survival
Toxic doses and inconclusive results are not listed.

// solved cases for T/C follow
Cc1n[nH]c(=O)[nH]c1=O = 106 % of control
Nc1ncccc1C(=O)O = 100 % of control

stdin: Any idea what T/C was measured for `COc1ccc2c(c1OC)C(=O)O[C@@H]2[C@H]1c2c(cc3c(c2OC)OCO3)CCN1C` ?
stdout: 92 % of control
